Test system: Salmonella typhimurium
Test: Example 1: effect of pH buffering of acetic and propionic acid on antimicrobial activity in water
Format: cell-based
Conditions: Product Conc. 0.075 (% acid solution in water); 4 hr
Range-based classes on measured Salmonella at time Interval 4 hr cfu/g: lo (below 700 cfu/g), mid (700 cfu/g to below 1000 cfu/g), hi (1000 cfu/g or more)

# Compound, Target Entity, Label
rows = [
    ("CCC(=O)O [Propionic pH 4, Propionic acid]", "Salmonella typhimurium", "mid"),
    ("CCC(=O)O [Propionic pH 2, Propionic acid]", "Salmonella typhimurium", "lo"),
    ("CCC(=O)O [Propionic pH 7, Propionic acid]", "Salmonella typhimurium", "hi"),
    ("CC(=O)O [Acetic pH 7, Acetic acid]", "Salmonella typhimurium", "hi"),
    ("CCC(=O)O [Propionic pH 1, Propionic acid]", "Salmonella typhimurium", "lo"),
    ("CC(=O)O [Acetic pH 5, Acetic acid]", "Salmonella typhimurium", "hi"),
    ("CCC(=O)O [Propionic pH 5, Propionic acid]", "Salmonella typhimurium", "hi"),
    ("CCC(=O)O [Propionic pH 6, Propionic acid]", "Salmonella typhimurium", "hi"),
    ("CC(=O)O [Acetic pH 2, Acetic acid]", "Salmonella typhimurium", "lo"),
    ("CC(=O)O [Acetic pH 6, Acetic acid]", "Salmonella typhimurium", "hi"),
    ("CC(=O)O [Acetic pH 3, Acetic acid]", "Salmonella typhimurium", "mid"),
    ("CC(=O)O [Acetic pH 1, Acetic acid]", "Salmonella typhimurium", "lo"),
    ("CC(=O)O [Acetic pH 4, Acetic acid]", "Salmonella typhimurium", "hi"),
]
